# study.target: Human MAGL (hMAGL) (Homo sapiens)
# Construct: hexahistidine; made in house; host or cells: E. coli
# Sequence (Q99685 whole entry): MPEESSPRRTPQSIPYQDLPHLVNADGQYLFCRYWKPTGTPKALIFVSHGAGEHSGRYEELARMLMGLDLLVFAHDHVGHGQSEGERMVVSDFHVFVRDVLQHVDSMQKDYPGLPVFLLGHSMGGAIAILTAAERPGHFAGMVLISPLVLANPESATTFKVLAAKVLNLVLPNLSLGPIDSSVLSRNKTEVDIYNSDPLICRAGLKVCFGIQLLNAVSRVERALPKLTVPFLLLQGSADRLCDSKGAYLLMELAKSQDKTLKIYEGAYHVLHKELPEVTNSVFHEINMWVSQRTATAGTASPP
# experimental.protocol: Fluorescent assay protocol for hMAGL (AHMMCE substrate)
# Assay type: biochemical
# test.settings: recombinant human MAGL, AHMMCE substrate, 15 min preincubation; read-out: IC50 hMAGL
pIC50: −log10 of the molar value.
property.measured: pIC50

- compound: "COc1cccc(OC(=O)N2CC(OCc3ccc(Br)cc3)C2)c1"
  property.measured: "pIC50"
  test.result: "< 6.00"
- compound: "O=C(Oc1c(F)cccc1F)N1CCC(S(=O)(=O)c2ccc(Br)cc2)CC1"
  property.measured: "pIC50"
  test.result: "6.00 to 6.96"
- compound: "C[C@H]1CN(C(=O)Nc2cccc(-c3cccc(C#N)c3)c2)CCN1Cc1ccc2ccccc2n1"
  property.measured: "pIC50"
  test.result: "< 6.00"

Fill in pIC50 for each of the 7 compounds listed.
1. O=C(Oc1cccc(N2CCS(=O)(=O)CC2)c1)N1CCC(c2ccccc2)CC1
2. O=C(N1CC(N2CCC(c3ccccc3)CC2)C1)n1cccn1
3. O=C(N1CC(OCc2ccc(Br)cc2)C1)n1cnc2ccccc21
4. O=C(N1CCN(C(c2ccc(F)cc2)c2ccc(F)cc2)CC1)n1cnc(-c2ccccc2)c1
5. N#Cc1cccc(-c2cccc(NC(=O)N3CCN(Cc4ccc5ccccc5n4)CC3)c2)c1
6. N#Cc1cccc(-c2cccc(NC(=O)N3CCC(c4ccccc4)CC3)c2)c1
7. CC1CN(c2ccccc2)CCN1C(=O)n1cnc(-c2ccccc2)c1 (stereo not drawn)

## Output
1: 6.00 to 6.96; 2: 7.00 to 8.00; 3: 7.00 to 8.00; 4: < 6.00; 5: < 6.00; 6: < 6.00; 7: < 6.00

Fill in pIC50 for each of the 2 compounds listed.
1. O=C(Nc1cccc(N2CCS(=O)(=O)CC2)c1)N1CCC(c2ccccc2)CC1
2. O=C(Oc1cccc(Br)c1)N1CC(OCc2ccc(Cl)cc2)C1

## Output
6.00 to 6.96
6.00 to 6.96

Fill in pIC50 for each of the 6 compounds listed.
1. NC(=O)c1cccc(-c2cccc(NC(=O)N3CCN(Cc4ccc5ccccc5n4)CC3)c2)c1
2. O=C(Oc1cccc(Cl)n1)N1CCN(C(c2ccccc2)c2ccccc2)CC1
3. CC1CN(c2ccccc2)CCN1C(=O)Oc1cccc(N2CCS(=O)(=O)CC2)c1 (stereo not drawn)
4. N#Cc1ccc(F)c(OC(=O)N2CCC(S(=O)(=O)c3ccc(Br)cc3)CC2)c1
5. NC(=O)c1cccc(-c2cccc(NC(=O)N3CCN(Cc4cnc5ccccc5c4)CC3)c2)c1
6. C[C@H]1CN(Cc2cccc(Oc3ccccc3)c2)CCN1C(=O)Nc1cncc(-c2cccc(C#N)c2)c1

## Output
1: < 6.00; 2: < 6.00; 3: 7.00 to 8.00; 4: 7.00 to 8.00; 5: 6.00 to 6.96; 6: < 6.00
